B1: TPR t1 (parent)
chain: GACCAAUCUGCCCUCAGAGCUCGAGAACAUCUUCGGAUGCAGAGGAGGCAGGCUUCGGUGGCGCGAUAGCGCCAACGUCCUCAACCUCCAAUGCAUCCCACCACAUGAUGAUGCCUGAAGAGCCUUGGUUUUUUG

# Variants of: B1
# ASSAY INFO: polymerase ribozyme fitness, log enrichment relative to wild type (log ratio); higher = more active; in vitro selection for triplet polymerase activity
PROPERTY MEASURED: polymerase ribozyme fitness (log ratio)
Keep it simple and answer with nothing but the number.

Known results for variants:
| MUTATION NOTATION | RESULT |
| --- | --- |
| A27U A119C G120A | -2.76 |
| A2U C88G U130A | -2.84 |
| C12U A16G C73U C102A | -1.8 |
| C70G U78A | -2.44 |
| U7A A16C C115A | -2.49 |
| C40A C80U C89U G117A A121G | -0.909 |
| C8G A18U U21A C79A C123G | -3.84 |
| G52C C85U G117C | -5.83 |
| A27G C86U C94U | -1.98 |
| G71A U78G A84U | -2.58 |

Next, consider the following variant.
Could you tell me which polymerase ribozyme fitness (log ratio) is on file for A37C C56G C101A G110U G127U ?
-4.67
